test system: CCRIS mutagenicity, Ames/micronucleus/aberration tests; assay: CCRIS mutagenicity studies; details: Test System: AMES SALMONELLA TYPHIMURIUM; Strain/Indicator: TA92; Metabolic Activation: NONE; Method: STANDARD PLATE
Activity calls are given as the source filed them. No rule for the calls is given here.
Output constraint: value belongs to y for active, n for inactive

Q: Status in this test for `C=CCc1ccccc1N.[Cl-].[Cl-].[Pd+2]` ?
Result: n

Q: Status in this test for `Cc1occc(=O)c1[O-].Cc1occc(=O)c1[O-].Cc1occc(=O)c1[O-].[Cr+3]` ?
Result: n

Q: Status in this test for `CN=NNc1ccc(C(=O)O)cc1` ?
Result: y

Q: Status in this test for `C=CCNc1ccccc1.C=CCNc1ccccc1.C=CCNc1ccccc1.[Cl-].[Cl-].[Rh].[Rh]` ?
Result: n

Q: Status in this test for CC1Cc2cccc3c2N1C(C)C3.CC1Cc2cccc3c2N1C(C)C3.[Cl-].[Cl-].[Cl-].[Cl-].[Pt+2].[Pt+2] (stereo not given) ?
Result: n
